# Tested on: NCI-H23
# PROTOCOL_SUMMARY: NCI tumour cell line growth inhibition, 48 h
The source made the active and inactive calls. Rule as the data show it: active = GI50 up to about 1.1 µM and inactive = higher.
Below, each entry is listed alongside its reported GI50.

Reference set (3 entries):
>>> result("CC(C)(C)N/N=C(\\C(=O)Nc1nnc(S)[nH]1)C1C(=O)Nc2ccccc2[S+]1[O-] (centres undefined)")
"> 100 µM (inactive)"
>>> result("C/C(O)=C1\\CC2CN3CCc4c([nH]c5ccccc45)C3CC2CC1=O (centres undefined)")
"92 µM (inactive)"
>>> result("COc1ccc(-n2c(=O)n(C)c(=O)n2-c2ccc(OC)cc2)cc1")
"> 100 µM (inactive)"

**Query** // lookup GI50 for N#C/N=C1\NC(Cc2ccccc2)C(=O)N1CCc1c[nH]c2ccccc12 (centres undefined)
**Result** 35.7 µM (inactive)

**Query** // lookup GI50 for `CC1=C(C(=S)Nc2ccc(Cl)c(C(=O)OC(C)C)c2)SCCO1`
**Result** 20.6 µM (inactive)

**Query** // lookup GI50 for `C[C@]12CC[C@H]3[C@@H](CCC4=CC(=O)CC[C@@H]43)[C@@H]1CC[C@@H]2OC1(O)C(=O)c2ccccc2C1=O`
**Result** 27.1 µM (inactive)

**Query** // lookup GI50 for `CN(C)CCNC(=O)c1cccc2c(NCCN(C)C)c3ccccc3nc12`
**Result** 2.33 µM (inactive)

**Query** // lookup GI50 for `O=[N+]([O-])c1ccc(Oc2c(Cl)cc(S(=O)(=O)N/C(=N\O)Nc3ccc(Cl)cc3)cc2Cl)cc1`
**Result** 9.98 µM (inactive)

**Query** // lookup GI50 for `COc1ccc(/C=C(\NC(=O)c2ccccc2)C(=O)NN(C)c2ccnc3cc(Cl)ccc23)cc1OC`
**Result** 24 µM (inactive)

Ref: ChEMBL document CHEMBL1201862
